Target: POS-1 (Caenorhabditis elegans) binding to mex-3 RNA
Assay: C. elegans POS-1 RNA interaction disruptors – biochemical, fluorescence polarization, cherry-picked samples, set 2, counter-screen for MEX-5 RNA-binding inhibitor project, dose response (AID 493130);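 note: POS-1 as maltose binding protein fusion made in E. coli with FITC RNA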
Conditions: POS-1/mex-3 RNA fluorescence polarization, 1 h; at 10 µM (top of the series)
Records with an inconclusive call do not appear. The source made the active and inactive calls.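 Rule for the calls: active = signal-lowering compounds whose fitted half-maximal concentration is at most ten times their highest tested dose; inconclusive = flat fit between -30 and -70%, or poor fit; inactive = flat within 30%, signal rising, or potency beyond limit.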
QUANTITY: activity change, negative = inhibition

O=C(Cc1cccs1)Nc1nnc(SCc2ccc(Br)cc2)s1 ... inactive
Cc1ccc(-c2cc(C(=O)O)c3cc(Br)ccc3n2)o1 ... inactive
O=C(O)CC1S/C(=N/N=C/c2ccc(-c3ccccc3[N+](=O)[O-])o2)NC1=O (centres undefined) ... inactive
Cc1cccc(NC(=O)CN2C(=O)S/C(=C\c3ccc(-c4cccc(C(=O)O)c4C)o3)C2=O)c1 ... inactive

Provide reported activity change, negative = inhibition for each item, in the same order as listed.
1. Nc1c(C(=O)Nc2cccc(Cl)c2Cl)sc2nc(-c3cccnc3)ccc12
2. N#CC1=C(N)Oc2c(O)cc3ccccc3c2C1c1ccsc1 (centres undefined)
3. COc1ccccc1-c1cn[nH]c1-c1ccc(O)cc1O
4. CC1(C)NC(=O)NC2(C)NC(=O)NC(C)(C)C12 (centres undefined)

OUTPUT:
1. inactive
2. inactive
3. inactive
4. inactive

List the reported activity change, negative = inhibition of each compound below.
1. Cc1c(O)ccc(-c2[nH]ncc2-c2nc3ccccc3s2)c1O
2. CCC(COC(C)=O)Nc1nc2c([nH]1)c(=O)n(C)c(=O)n2C (centres undefined)
3. COc1ccc(/C=N/NC(=S)Nc2cccc(C(=O)O)c2)cc1
4. O=C(N/N=C/c1cccnc1)c1ccc(O)cc1
5. NC(=O)c1cccc2cc3ccccc3cc12
6. CCc1nnc(NS(=O)(=O)c2ccc(N=Cc3c(O)n(-c4ccc(Cl)cc4)c(=O)[nH]c3=O)cc2)s1
7. CCOC(=O)c1c(-c2ccccc2)oc2ccc(OCC(=O)NNC(=O)CCC(=O)O)cc12
8. CCCc1nc2c(=O)n(C)c(=O)[nH]c2n1C

OUTPUT:
1. inactive
2. inactive
3. inactive
4. inactive
5. inactive
6. inactive
7. inactive
8. inactive

# batch: return activity change, negative = inhibition for each of the 8 compounds below
1. COc1cccc(NC2=C(NCCO)C(=O)c3ccccc3C2=O)c1
2. O=C(CCN1C(=O)/C(=C\c2ccco2)SC1=S)Nc1ccc(C(=O)O)c(O)c1
3. CNC(=O)c1cc2ccc(OC)cc2oc1=O
4. CC1=NN(C(N)=S)C(=O)C1N=Nc1ccccc1C (centres undefined)
5. COc1ccc(OC)c(/C=N/NC(=O)c2ccc(=O)[nH]n2)c1
6. CCc1nnc2c(N(C)C)nc3ccccc3n12
7. COc1ccc(-n2c(C)nc3cc(C(=O)O)ccc32)cc1
8. CCCCN(C(=O)c1ccc(C)o1)c1c(N)n(CCCC)c(=O)[nH]c1=O

OUTPUT:
1. inactive
2. inactive
3. inactive
4. inactive
5. inactive
6. inactive
7. inactive
8. inactive

Okay, here is my list. What is activity change, negative = inhibition for each of these?
1. COC(=O)c1cc(NC(=O)c2ccccc2)c(=O)oc1C
2. COc1cc(/C=C2/C(C)=C(C#N)c3nc(N)c(C#N)c(C)c32)ccc1OCC(=O)O

OUTPUT:
["inactive", "inactive"]

meta.source: PubChem BioAssay AID493130
